target entity: T1, human GLP-1 receptor (human, UniProt P43220 24-463)
T1 construct: whole, on cells; also called hGLP-1R; hGLP1R
experimental details: [125I]-GLP-1 competition SPA, hGLP-1R membranes
outcome measure: pKi
The scale used: pKi is minus the common logarithm of the concentration in molar units.

Recorded pKi, per entry:
>  <binder>
FXEGTFTSDYSIXLDKKAQXEFIEYLIAGGPSSGAPPPS (Aib2; αMeL13; K17((2-[2-(2-Amino-ethoxy)-ethoxy]-acetyl)2-(γ-Glu)-CO-(CH2)18-CO2H); Aib20; C-terminal NH2) [Example 338]

>  <number>
8.49

$$$$
>  <binder>
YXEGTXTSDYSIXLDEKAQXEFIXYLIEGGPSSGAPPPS (Aib2; αMeF(2F)6; Aib13; K17((2-[2-(2-Amino-ethoxy)-ethoxy]-acetyl)2-(γ-Glu)-CO-(CH2)18-CO2H); Aib20; D-Glu24; C-terminal NH2) [Example 224]

>  <number>
8.16

$$$$
>  <binder>
YXEGTFTSDYSIXLDKKAQXEFIEYLIEGGPSSG (Aib2; αMeL13; K17((2-[2-(2-Amino-ethoxy)-ethoxy]-acetyl)2-(γ-Glu)-CO-(CH2)16-CO2H); Aib20; C-terminal NH2) [Example 304]

>  <number>
8.35

$$$$
>  <binder>
YXEGTFTSDYSIXLDEKAQXAFIXYLIAGGPSSGAPPPS (Aib2; αMeL13; K17((2-[2-(2-Amino-ethoxy)-ethoxy]-acetyl)2-(γ-Glu)-CO-(CH2)18-CO2H); Aib20; D-Glu24; C-terminal NH2) [Example 343]

>  <number>
7.88

$$$$
>  <binder>
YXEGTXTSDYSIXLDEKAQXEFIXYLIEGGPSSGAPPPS (Aib2; αMeF(2F)6; αMeL13; K17((2-[2-(2-Amino-ethoxy)-ethoxy]-acetyl)2-(εK)-CO-(CH2)18-CO2H); Aib20; D-Glu24; C-terminal NH2) [Example 216]

>  <number>
8.63

$$$$

Next, consider the following binder.
For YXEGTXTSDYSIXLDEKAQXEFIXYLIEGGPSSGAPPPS (Aib2; αMeF6; Aib13; K17((2-[2-(2-Amino-ethoxy)-ethoxy]-acetyl)2-(γ-Glu)-CO-(CH2)18-CO2H); Aib20; D-Glu24; C-terminal NH2) [Example 225] the binder record lists pKi as 8.06

Source: patent US20200024322A1
